Values from patent US9833497B2

Recorded MIC against E. cloacae by entry
system: Enterobacter cloacae; test: MIC against Gram-negative bacteria: Enterobacter cloacae; type: cell-based; conditions: 96-well plate, 5×10^5 CFU/mL, 37° C., 10 h

substance	displayUnit	MIC against E. cloacae
PRT536 (CECHPTGATGPHCSPEGGQCPCQPNVIGRQCTRCATGHYGFPRCKP; listed as Homo sapiens)	µg/mL	12.5
PRT464 (DLDECRVRNLCQHACRNTEGSYQCLCPAGYRLLPSGKNCQ; listed as Homo sapiens)	µg/mL	12.5
PRT532 (CWCSALGSYQMPCSSVTGQCECRPGVTGQRCDRCLSGAYDFPHCQGSSSACDP; listed as Homo sapiens)	µg/mL	12.5
PRT537 (CDCNGNSNECLDGSGYCVHCQRNTTGEHCEKCLDGYIGDSIRGAPQFCQP; listed as Homo sapiens)	µg/mL	50
PRT490 (CASAPCRNGGVCREGWNRFICDCIGTGFLGRVCE; listed as Homo sapiens)	µg/mL	25
PRT528 (CSCNSNGQLGSCHPLTGDCINQEPKDSSPAEECDD; listed as Homo sapiens)	µg/mL	12.5
PRT462 (DVDECLEGLDDCHYNQLCENTPGGHRCSCPRGYRMQGPS; listed as Homo sapiens)	µg/mL	12.5

###

tested on: Aeromonas hydrophila; assay: MIC against Gram-negative bacteria: Aeromonas hydrophila; assay type: cell-based; conditions: A. hydrophila; 10 h cultivation at 37° C.; 5×10^5 CFU/mL

substance	MIC (μg/mL) A. hydrophila, µg/mL
PRT891 (DVDECASTPCKNGAKCLDGPNTYTCVCTEGYTGTHCE; listed as Homo sapiens)	25
PRT836 (FGHDCSLTCDDCRNGGTCLLGLDGCDCPEGWTGLICN; listed as Homo sapiens)	12.5
PRT243 (DVNECGMKPRPCQHRCVNTHGSYKCFCLSGHMLMPDATCV; listed as Homo sapiens)	25
PRT175 (CEHAPCHNGATCHERGHRYVCECARGYGGPNC; listed as Homo sapiens)	25

###

system: Moraxella catarrhalis; experiment: MIC against Gram-negative bacteria: Moraxella catarrhalis; format: cell-based; settings: 96-well plate, 5×10^5 CFU/mL, 37° C., 10 h

substance	MIC against M. catarrhalis
PRT463 (DVNECLQLPKACAYQCHNLQGSYRCLCPPGQTLLRDGKACT; listed as Homo sapiens)	12.5 µg/mL
PRT544 (CDCGARLCDELTGQCICPPRTIPPDCLLCQPQTFGCHPLVGCEE; listed as Homo sapiens)	12.5 µg/mL
PRT504 (CDCSGNVDPSEAGHCDSVTGECLKCLGNTDGAHCERCADGFYGDAVTAKNCRA; listed as Homo sapiens)	25 µg/mL
PRT485 (QADPCKFLACGEFAQCVKNERTEEAECRCKPGYDSQGSL; listed as Homo sapiens)	25 µg/mL
PRT560 (GSCHPAGLAPVDPALPEAQVPCMCRAHVEGPSCDRCKPGFWGLSPSNPEGCTR; listed as Homo sapiens)	25 µg/mL
PRT503 (CACPLTIASNNFSPTCHLNDGDEVVCDWCAPGYSGAWCERCADGYYGNPTVPGESCVP; listed as Homo sapiens)	12.5 µg/mL
PRT524 (CNCSRRGTIEAAMPECDRDSGQCRCKPRITGRQCDRCASGFYRFPECVP; listed as Homo sapiens)	25 µg/mL
